Cited source for all entries: PubChem BioAssay AID1963854

System: 186277-243-T-J2-PDC complex spheroid viability;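 note: spheroids exposed to compounds for seven days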
Assay: Anticancer human tumor 186277-243-T-J2-PDC patient-derived colon adenocarcinoma cell line growth inhibition [POLQ]
Conditions: curve of first compound; second compound 0.0316 µM
Experimental: Multicellular complex tumor spheroid response to Polymerase (POL) inhibitors (novobiocin, ART-558, RP6685) in combination with a variety of drugs and investigational agents in selected tumor cell lines The POL inhibitors (novobiocin, ART-558, and RP6685) were evaluated both individually and in combination with standard of care and investigational anticancer small molecules within a complex spheroid model of solid tumors. . […]
pIC50: −log10 of the molar value.
pIC50 values for the compounds below.
PARAMETER_MEASURED: pIC50

compound="COc1cccc(OCCCN)c1-c1cc(Nc2cnc(C#N)cn2)n[nH]1 + COC1C(OC(N)=O)C(O)C(Oc2ccc3c(O)c(NC(=O)c4ccc(O)c(CC=C(C)C)c4)c(=O)oc3c2C)OC1(C)C" target_system="186277-243-T-J2-PDC complex spheroid viability" experimental_result="> 8.50"
compound="C#Cc1c(F)ccc2cc(O)cc(-c3ncc4c(N5CC6CCC(C5)N6)nc(OCC56CCCN5CC(F)C6)nc4c3F)c12 (stereo not given) + COC1C(OC(N)=O)C(O)C(Oc2ccc3c(O)c(NC(=O)c4ccc(O)c(CC=C(C)C)c4)c(=O)oc3c2C)OC1(C)C" target_system="186277-243-T-J2-PDC complex spheroid viability" experimental_result=7.06
compound="CCc1cc2c(N3CCc4c(cc(Cn5ccnc5)cc4-c4cn(C)nc4C(F)(F)F)C3=O)ccnc2c(OC)n1 + COC1C(OC(N)=O)C(O)C(Oc2ccc3c(O)c(NC(=O)c4ccc(O)c(CC=C(C)C)c4)c(=O)oc3c2C)OC1(C)C" target_system="186277-243-T-J2-PDC complex spheroid viability" experimental_result="< 5.00"
compound="COc1cccc(OCCCN)c1-c1cc(Nc2cnc(C#N)cn2)n[nH]1 + Nc1ccc(C#CCN(C(=O)Cc2ncc(C(F)(F)F)cc2C(F)(F)F)c2ccc(F)cc2)nn1" target_system="186277-243-T-J2-PDC complex spheroid viability" experimental_result="> 8.50"
compound="CC(C)n1c(=O)n(C)c2cnc3cc(F)c(-c4ccc(OCCCN5CCCCC5)nc4)cc3c21 + Nc1ccc(C#CCN(C(=O)Cc2ncc(C(F)(F)F)cc2C(F)(F)F)c2ccc(F)cc2)nn1" target_system="186277-243-T-J2-PDC complex spheroid viability" experimental_result="< 5.00"
compound="O=C(Nc1ccc(O)c(NS(=O)(=O)c2ccc(F)cc2)c1)c1ccc(-c2ccccc2)cc1 + Cc1cccc(N(C)C(=O)C2C(O)CCN2c2nc(C)cc(C(F)(F)F)c2C#N)c1" target_system="186277-243-T-J2-PDC complex spheroid viability" experimental_result="< 5.00"
compound="CC[C@@]1(O)C(=O)OCc2c1cc1n(c2=O)Cc2cc3c(CN(C)C)c(O)ccc3nc2-1 + Nc1ccc(C#CCN(C(=O)Cc2ncc(C(F)(F)F)cc2C(F)(F)F)c2ccc(F)cc2)nn1" target_system="186277-243-T-J2-PDC complex spheroid viability" experimental_result="< 7.00"
compound="CC(=O)O[C@H]1C(=O)[C@@]2(C)[C@H]([C@H](OC(=O)c3ccccc3)[C@]3(O)C[C@H](OC(=O)[C@H](O)[C@@H](NC(=O)c4ccccc4)c4ccccc4)C(C)=C1C3(C)C)[C@]1(OC(C)=O)CO[C@@H]1C[C@@H]2O + COC1C(OC(N)=O)C(O)C(Oc2ccc3c(O)c(NC(=O)c4ccc(O)c(CC=C(C)C)c4)c(=O)oc3c2C)OC1(C)C" target_system="186277-243-T-J2-PDC complex spheroid viability" experimental_result="> 8.02"
compound="O=C(c1cc(Cc2n[nH]c(=O)c3ccccc23)ccc1F)N1CCN(C(=O)C2CC2)CC1 + Nc1ccc(C#CCN(C(=O)Cc2ncc(C(F)(F)F)cc2C(F)(F)F)c2ccc(F)cc2)nn1" target_system="186277-243-T-J2-PDC complex spheroid viability" experimental_result="< 5.00"
compound="O=c1[nH]cc(F)c(=O)[nH]1 + Cc1cccc(N(C)C(=O)C2C(O)CCN2c2nc(C)cc(C(F)(F)F)c2C#N)c1" target_system="186277-243-T-J2-PDC complex spheroid viability" experimental_result=5.03
